Attribution: patent US20260000692A1

assay_system: CDK12 (Homo sapiens)
protocol: Biochemical assay for CDK12 (LANCE TR-FRET, IC50 determination)
condition_label: CDK12, IC50 class; read-out: IC50 μM (in range)
As shown below, each of these molecules has a reported IC50 value.
property: IC50

>>> print(df.to_string())
                                    molecule          result
 0  CNC(=O)[C@H](C)Oc1cc(NC(=O)Cc2ccc(-c3cccc(C#N)n3)nc2)ncc1Cl       < 0.01 µM
 1  N#CN1CCC=C(c2ccc(CC(=O)Nc3cc(OC4CCOCC4)c(Cl)cn3)cn2)C1       < 0.01 µM
 2  COc1cc(NC(=O)Cc2ccc(N3CCN(C#N)CC3)nc2)ncc1Cl  0.01 to 0.1 µM
 3  COc1cc(NC(=O)Cc2ccc(C3=CC4CN(C#N)CC4C3)cc2)ncc1Cl (centres unmarked)  0.01 to 0.1 µM
 4  CN1CC[C@H](Oc2cc(NC(=O)Cc3ccc(C4CCN(C#N)CC4)nc3)ncc2Cl)C1        > 0.1 µM
 5  COc1cc(NC(=O)C(C)c2ccc(C3=CCN(C#N)CC3)nc2)ncc1Cl (centres unmarked) [Compound 51]       < 0.01 µM
 6  N#CN1CCC=C(c2ccc(CC(=O)Nc3ccc(Cl)cn3)cn2)C1  0.01 to 0.1 µM
 7  N#CN1CCCC(c2ccc(CC(=O)Nc3cc(O[C@H]4CCOC4)c(Cl)cn3)cn2)C1 (single isomer, unassigned) [Compound 96]        > 0.1 µM
 8  COc1cc(NC(=O)Cc2ccc(-c3cc(N4CC(OC)C4)cc(C#N)n3)nc2)ncc1Cl        > 0.1 µM
 9  COc1cc(NC(=O)Cc2ccc(-c3cccc(C#N)n3)nc2)ncc1Cl       < 0.01 µM
10  N#CN1CCC=C(c2ccc(CC(=O)Nc3cc(O[C@H]4CCOC4)c(Cl)cn3)cn2)C1       < 0.01 µM

====

assay_system: CDK12 (Homo sapiens)
protocol: Biochemical assay for CDK12 (LANCE TR-FRET, IC50 determination)
condition_label: CDK12, IC50 class; read-out: IC50 μM (in range)
property: IC50

>>> print(df.to_string())
                                   molecule          result
0  COc1cc(NC(=O)Cc2ccc(C3=CCN(C#N)C(C)C3)nc2)ncc1Cl (stereo not shown) [Compound 65]       < 0.01 µM
1  CNC(=O)C(C)Oc1cc(NC(=O)Cc2ccc(C3CCN(C#N)CC3)nc2)ncc1Cl (stereo not shown) [Compound 82]  0.01 to 0.1 µM
2  COc1cc(NC(=O)Cc2ccc(C3=CCN(C#N)CC3C)nc2)ncc1Cl (stereo not shown) [Compound 70]       < 0.01 µM
3  N#CN1CCCC(c2ccc(CC(=O)Nc3cc(O[C@@H]4CCOC4)c(Cl)cn3)cn2)C1 (stereo partly shown) [Compound 92]  0.01 to 0.1 µM

====

assay_system: CDK12 (Homo sapiens)
protocol: Biochemical assay for CDK12 (LANCE TR-FRET, IC50 determination)
condition_label: CDK12, IC50 class; read-out: IC50 μM (in range)
Experimental: Biochemical Assay for CDK12 (IC50 Determination): The inhibitory activity of the test compounds was assessed by the LANCE TR-FRET assay, which detects the ATP-dependent phosphorylation of an ULight-4E-BP1 (Thr37/Thr46) substrate peptide (100 nM) by CDK12 (30 nM). […] Time-resolved fluorescence (excitation, 320 nm; emission donor, 615 nm; emission acceptor, 665 nm) was monitored by using 2030 multilabel reader Victor5 (PerkinElmer). […]
As shown below, each of these compounds has a reported IC50 value.
property: IC50

>>> df
                                   compound  property          result
0  N#CN1CCC(c2ccc(CC(=O)Nc3cc(O[C@@H]4CCOC4)c(Cl)cn3)cn2)CC1 [Compound 98]      IC50  0.01 to 0.1 µM
1  N#CN1CCC=C(c2ccc(CC(=O)Nc3cc(OC4CCCOC4)c(Cl)cn3)cn2)C1 (single isomer, unassigned) [Compound 45]      IC50       < 0.01 µM
2  CNC(=O)C(C)Oc1cc(NC(=O)Cc2ccc(C3CCCN(C#N)C3)nc2)ncc1Cl (single isomer, unassigned) [Compound 91]      IC50  0.01 to 0.1 µM
3  N#CN1CCC(c2ccc(CC(=O)Nc3cc(O[C@H]4CCOC4)c(Cl)cn3)cn2)CC1 [Compound 99]      IC50  0.01 to 0.1 µM
4  CNC(=O)[C@H](C)Oc1cc(NC(=O)Cc2cnc(C3CCN(C#N)CC3)c(OC)c2)ncc1Cl [Compound 128]      IC50       < 0.01 µM
5  Cc1cc(CC(=O)Nc2ccc(Cl)cn2)cnc1C1=CCN(C#N)CC1 [Compound 13]      IC50  0.01 to 0.1 µM
6  CN1CCC[C@@H](Oc2cc(NC(=O)Cc3ccc(C4=CCN(C#N)CC4)nc3)ncc2Cl)C1 [Compound 32]      IC50       < 0.01 µM

====

assay_system: CDK12 (Homo sapiens)
protocol: Biochemical assay for CDK12 (LANCE TR-FRET, IC50 determination)
condition_label: IC50 μM (in range), CDK12, IC50 class
property: IC50

>>> df
                                  structure          result
0  CN(C)C(=O)Oc1cc(NC(=O)Cc2ccc(C3CCN(C#N)CC3)nc2)ncc1Cl        > 0.1 µM
1  CN(C)C(=O)Oc1cc(NC(=O)Cc2ccc(C3=CCCN(C#N)C3)nc2)ncc1Cl       < 0.01 µM
2  CN(C)C(=O)Oc1cc(NC(=O)Cc2ccc(C3=CCN(C#N)CC3)nc2)ncc1Cl  0.01 to 0.1 µM

====

As shown below, each of these compounds has a reported IC50 value.
assay_system: CDK12 (Homo sapiens, UniProt Q9NYV4)
Sequence (Q9NYV4 whole entry): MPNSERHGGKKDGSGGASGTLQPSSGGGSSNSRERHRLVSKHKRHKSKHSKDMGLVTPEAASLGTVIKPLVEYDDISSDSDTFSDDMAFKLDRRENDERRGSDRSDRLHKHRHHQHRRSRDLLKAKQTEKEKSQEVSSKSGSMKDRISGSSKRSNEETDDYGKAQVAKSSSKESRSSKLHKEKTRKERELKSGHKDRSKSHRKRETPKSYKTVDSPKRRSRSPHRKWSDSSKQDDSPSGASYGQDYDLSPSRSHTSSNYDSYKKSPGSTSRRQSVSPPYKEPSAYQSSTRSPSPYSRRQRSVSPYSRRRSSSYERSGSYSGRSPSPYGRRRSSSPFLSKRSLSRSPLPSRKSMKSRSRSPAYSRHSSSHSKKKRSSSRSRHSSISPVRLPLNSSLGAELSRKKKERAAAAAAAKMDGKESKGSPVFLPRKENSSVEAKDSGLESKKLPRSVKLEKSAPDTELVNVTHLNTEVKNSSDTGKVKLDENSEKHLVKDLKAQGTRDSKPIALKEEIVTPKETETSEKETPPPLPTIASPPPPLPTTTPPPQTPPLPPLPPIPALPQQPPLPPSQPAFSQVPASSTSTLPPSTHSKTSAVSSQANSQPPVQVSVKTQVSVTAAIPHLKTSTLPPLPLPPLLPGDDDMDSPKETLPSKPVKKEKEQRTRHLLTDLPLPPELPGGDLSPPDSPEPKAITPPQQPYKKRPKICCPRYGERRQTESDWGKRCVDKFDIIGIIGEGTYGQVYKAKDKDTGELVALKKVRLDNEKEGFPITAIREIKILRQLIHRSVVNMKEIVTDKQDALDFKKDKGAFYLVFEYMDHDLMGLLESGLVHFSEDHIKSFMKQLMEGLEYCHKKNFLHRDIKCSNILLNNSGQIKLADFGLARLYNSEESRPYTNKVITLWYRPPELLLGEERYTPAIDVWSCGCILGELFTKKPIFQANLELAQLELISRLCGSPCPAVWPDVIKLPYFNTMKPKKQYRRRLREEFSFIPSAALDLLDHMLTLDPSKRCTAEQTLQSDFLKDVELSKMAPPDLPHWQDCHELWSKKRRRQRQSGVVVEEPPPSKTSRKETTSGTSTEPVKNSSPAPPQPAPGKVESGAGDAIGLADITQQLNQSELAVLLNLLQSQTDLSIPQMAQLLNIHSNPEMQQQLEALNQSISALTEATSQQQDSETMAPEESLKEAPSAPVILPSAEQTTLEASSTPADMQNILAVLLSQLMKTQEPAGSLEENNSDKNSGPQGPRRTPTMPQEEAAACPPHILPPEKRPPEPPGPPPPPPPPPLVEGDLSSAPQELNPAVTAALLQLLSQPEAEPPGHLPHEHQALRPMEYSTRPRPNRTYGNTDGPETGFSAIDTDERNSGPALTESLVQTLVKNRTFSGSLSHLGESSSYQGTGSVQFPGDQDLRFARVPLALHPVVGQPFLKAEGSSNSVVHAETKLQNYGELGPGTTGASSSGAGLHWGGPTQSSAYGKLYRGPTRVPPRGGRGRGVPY
Sequence (O75909 whole entry partner): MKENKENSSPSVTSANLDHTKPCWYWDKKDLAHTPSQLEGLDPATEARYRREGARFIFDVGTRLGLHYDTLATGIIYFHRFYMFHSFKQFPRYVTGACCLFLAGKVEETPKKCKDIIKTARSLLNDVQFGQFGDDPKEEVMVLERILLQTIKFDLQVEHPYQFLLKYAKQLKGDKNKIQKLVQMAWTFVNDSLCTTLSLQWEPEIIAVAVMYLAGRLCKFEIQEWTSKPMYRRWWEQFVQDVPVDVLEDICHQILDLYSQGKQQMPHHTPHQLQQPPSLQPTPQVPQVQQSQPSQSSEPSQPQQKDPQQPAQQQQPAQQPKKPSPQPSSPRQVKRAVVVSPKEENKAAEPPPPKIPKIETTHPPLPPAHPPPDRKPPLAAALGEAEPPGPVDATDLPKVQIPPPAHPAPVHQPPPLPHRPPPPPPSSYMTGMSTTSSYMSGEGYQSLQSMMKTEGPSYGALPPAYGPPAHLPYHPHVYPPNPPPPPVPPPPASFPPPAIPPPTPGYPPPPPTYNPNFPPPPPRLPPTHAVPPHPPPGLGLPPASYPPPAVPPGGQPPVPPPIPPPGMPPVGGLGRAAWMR
protocol: Biochemical assay for CDK12 (LANCE TR-FRET, IC50 determination)
condition_label: CDK12, IC50 class; read-out: IC50 μM (in range)
property: IC50

>>> print(df.to_string())
                                   compound  property          result
0  COc1cc(NC(=O)Cc2ccc(C34CCN(C#N)CC3C4)nc2)ncc1Cl (centres unmarked) [Compound 133]      IC50       < 0.01 µM
1  CNC(=O)C(C)Oc1cc(NC(=O)Cc2ccc(C3=CCN(C#N)CC3)nc2)ncc1Cl (single isomer, unassigned) [Compound 3]      IC50       < 0.01 µM
2  CC(CN(C)C)Oc1cc(NC(=O)Cc2ccc(C3=CCN(C#N)CC3)nc2)ncc1Cl (centres unmarked) [Compound 31]      IC50       < 0.01 µM
3  N#CN1CCC=C(c2ccc(CC(=O)Nc3ccc(C4CC4)cn3)cn2)C1 [Compound 106]      IC50       < 0.01 µM
4  CSc1ccc(NC(=O)Cc2ccc(C3=CCCN(C#N)C3)nc2)nc1 [Compound 107]      IC50  0.01 to 0.1 µM
5  N#CN1CC=C(c2ccc(CC(=O)Nc3cc(OC4COC4)c(Cl)cn3)cn2)CC1 [Compound 15]      IC50       < 0.01 µM
6  COc1cc(NC(=O)Cc2ccc(-c3cc(N4C[C@H]5CC[C@@H](C4)O5)cc(C#N)n3)nc2)ncc1Cl [Compound 195]      IC50  0.01 to 0.1 µM
7  COc1cc(NC(=O)Cc2ccc(-c3ccnc(C#N)c3)nc2)ncc1Cl [Compound 142]      IC50  0.01 to 0.1 µM

====

As shown below, each of these molecules has a reported inhibition at 10 µM value.
assay_system: CDK12 (Homo sapiens, UniProt Q9NYV4)
protocol: Biochemical assay for CDK12 (LANCE TR-FRET, IC50 determination)
condition_label: compound at 10 μM; read-out: CDK12 % Inhibition @ 10 μM
property: inhibition at 10 µM

>>> print(df.to_string())
                                   molecule  result
0  N#CN1CC=C(c2ccc(CC(=O)Nc3cc(O[C@H]4CCOC4)c(Cl)cn3)cn2)CC1     93%
1  COc1cc(NC(=O)Cc2ccc(-c3cc(OCCN(C)C)cc(C#N)n3)nc2)ncc1Cl     90%
2  N#CN1CCC=C(c2ccc(CC(=O)Nc3cc(Cl)c(Cl)cn3)cn2)C1    100%
3  COc1cc(NC(=O)Cc2ccc(C3CC4CCC(C3)N4C#N)nc2)ncc1Cl (centres unmarked)    100%
4  COc1cc(NC(=O)Cc2cnc(C3=CCCN(C#N)C3)c(OC)c2)ncc1Cl     88%
5  COc1cc(NC(=O)Cc2ccc(C3=CCN(C#N)C(C)C3)nc2)ncc1Cl (centres unmarked) [Compound 65]     87%
6  COc1cc(NC(=O)Cc2ccc(C3=CCCN(C#N)C3)cc2)ncc1Cl     91%
7  COc1cc(NC(=O)Cc2ccc(C3CCN(C#N)CC3)nc2)ncc1Cl     89%
